Test system: Huh7 and MCF7
protocolDescription: SRB cytotoxicity, summary for both cell lines
Assay type: cell-based
conditionContext: Homo sapiens; one value or range for Huh7 and MCF7 together; read-out: IC50 against both cell lines
Procedure: Mahlavu, FOCUS, SNU475 (1000 cell/well in 150 μL/well); Huh7, MCF7 (2500 cell/well in 150 μL/well); HepG2, Hep3B, SKBR3 (3000 cell/well in 150 μL/well); PLC-PRF-5, Hep40 (5000 cell/well in 150 μL/well); MDA-MB-231, MDA-MB-468, MCF10A (6000 cell/well in 150 μL/well); and ZR-75 (7500 cell/well in 150 μL/well) were cultured in 96-well plates and were inoculated in an incubator for 24 hours. […] The IC50 values of compounds were calculated in comparison with control group DMSO. […]
measure: IC50

itemSmiles	measurement
Cc1onc(-c2ccc(OCc3ccccc3)cc2)c1-c1ccc(Cl)cc1	≥ 20 µM
Cc1cccc(COc2ccc(-c3noc(C)c3-c3ccc(Cl)cc3)cc2)c1	≥ 20 µM
Cc1ccc(COc2ccc(-c3noc(C)c3-c3ccc(Cl)cc3)cc2)cc1	≥ 20 µM

* * *

protocolDescription: Mouse PK, IV and PO
Type: in vivo
conditionContext: male, CD-1, plasma, 1 mg/kg; Mouse IV PK, 1 mpk

itemSmiles	uom	half-life
Cc1ccccc1COc1ccc(-c2ccnn2-c2ccc(Cl)cc2)cc1	h	3.85

* * *

protocolDescription: Mouse PK, IV and PO
Type: in vivo
conditionContext: male, CD-1, plasma, 10 mg/kg; Mouse PO PK, 10 mpk
measure: Cmax (ng/mL)

itemSmiles	uom	measurement
Cc1ccccc1COc1ccc(-c2ccnn2-c2ccc(Cl)cc2)cc1	ng/mL	19.3

* * *

protocolDescription: Mouse PK, IV and PO
Type: in vivo
conditionContext: male, CD-1, plasma, 10 mg/kg; Mouse PO PK, 10 mpk

itemSmiles	AUC [ng·h/mL]
Cc1ccccc1COc1ccc(-c2ccnn2-c2ccc(Cl)cc2)cc1	192

* * *

Each record here notes measured IC50.
Test system: Mahlavu
protocolDescription: SRB cytotoxicity assay
Type: cell-based, human
conditionContext: Homo sapiens, Mahlavu, 72 h, 72 h treatment
measure: IC50 (µM)

compound	readoutQualifier	measurement
Cc1cc(-c2ccc(OCc3ccccc3C)cc2)n(-c2ccc(Cl)cc2)n1 [compound 69]	=	9.2
Cc1ccccc1COc1ccc(-n2nccc2-c2ccc(Cl)cc2)cc1 [compound 78]	>	20
Cc1cc(-c2ccc(Cl)cc2)n(-c2ccc(OCc3ccccc3C)cc2)n1 [compound 79]	=	9.6
Cc1ccccc1COc1ccc(-c2c(-c3ccc(Cl)cc3)noc2C)cc1 [compound 67]	>	20
Cc1ccccc1COc1ccc(-c2oncc2-c2ccc(Cl)cc2)cc1 [compound 63]	≥	20

* * *

Each record here notes measured IC50.
Test system: Mahlavu
protocolDescription: SRB cytotoxicity assay
Format: cell-based, human
conditionContext: Homo sapiens, Mahlavu, 72 h, 72 h treatment

itemSmiles	experimentalSystem	readoutQualifier	IC50 [µM]
Cc1ccccc1C(=O)Nc1ccc(-c2ccnn2-c2ccc(Cl)cc2)cc1	Mahlavu	>	20
Cc1nc(-c2ccc(OCc3ccccc3C)cc2)c(-c2ccc(Cl)cc2)s1	Mahlavu	>	20
Cc1ccccc1COc1ccc(-c2ccnn2-c2ccc(Cl)cc2)cn1	Mahlavu	>	20
Cc1ccccc1COc1ccc(-c2ccnn2-c2ccc(Cl)cc2)c(F)c1	Mahlavu	=	3.2
Cc1ccccc1COc1ccc(-c2noc(N)c2-c2ccc(Cl)cc2)cc1	Mahlavu	=	3.9
Cc1ccccc1COc1ccc(-c2nn(C)cc2-c2ccc(Cl)cc2)cc1	Mahlavu	=	12
Cc1ccccc1CNc1ccc(-c2ccnn2-c2ccc(Cl)cc2)cc1	Mahlavu	=	4.5
Cc1ccccc1COc1ccc(-c2onc(C)c2-c2ccc(Cl)cc2)cc1	Mahlavu	=	9.4
Cc1ccccc1COc1ccc(-c2ccnn2-c2ccc(Cl)cc2)nc1	Mahlavu	=	7.1

Data provenance: paper PMC9583322
